Molecular target: Factor Xa (Homo sapiens, UniProt P00742)
Sequence (P00742 235-488 limits assumed): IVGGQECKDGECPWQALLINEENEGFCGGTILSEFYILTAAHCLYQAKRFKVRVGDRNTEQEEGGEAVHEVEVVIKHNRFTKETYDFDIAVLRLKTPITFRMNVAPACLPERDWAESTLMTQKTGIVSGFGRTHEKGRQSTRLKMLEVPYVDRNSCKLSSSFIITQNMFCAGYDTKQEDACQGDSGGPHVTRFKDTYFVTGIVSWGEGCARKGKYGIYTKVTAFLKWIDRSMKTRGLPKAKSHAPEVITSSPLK
Sequence (P00742 41-179 partner limits assumed): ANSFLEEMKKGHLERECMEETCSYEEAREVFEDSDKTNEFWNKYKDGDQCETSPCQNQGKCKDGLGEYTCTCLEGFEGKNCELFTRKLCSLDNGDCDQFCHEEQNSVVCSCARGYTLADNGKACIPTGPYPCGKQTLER
Label key: Satisfied means IC50 under 4 nM; Not satisfied means IC50 of 4 nM or more.

Recorded results for 3 molecules are shown here.
Molecule	Assigned Class
N=C(N)c1cc2ccc(OC(=O)c3cccs3)cc2o1 [Example 2]	Not satisfied
N=C(N)c1nc2ccc(OC(=O)c3ccccc3)cc2s1 [Example 12]	Not satisfied
N=C(N)c1nc2ccc(OC(=O)c3ccc(Cl)s3)cc2s1 [Example 17]	Satisfied

## Task Item N=C(N)c1nc2ccc(OC(=O)c3ccsc3)cc2s1 [Example 16] : IC50 beneath 4 nM, strictly?
## Result Not satisfied

## Task And for N=C(N)c1ccc2cc(OC(=O)c3ccccc3)ccc2c1 [reference, reference compound] ?
## Result Not satisfied

## Task And for CC/C=C/C(=O)Oc1ccc2cc(C(=N)N)sc2c1 [Example 20] ?
## Result Not satisfied

---

// reported IC50 for each item listed
Target: kallikrein (Homo sapiens, UniProt P03952)
Sequence (P03952 whole entry): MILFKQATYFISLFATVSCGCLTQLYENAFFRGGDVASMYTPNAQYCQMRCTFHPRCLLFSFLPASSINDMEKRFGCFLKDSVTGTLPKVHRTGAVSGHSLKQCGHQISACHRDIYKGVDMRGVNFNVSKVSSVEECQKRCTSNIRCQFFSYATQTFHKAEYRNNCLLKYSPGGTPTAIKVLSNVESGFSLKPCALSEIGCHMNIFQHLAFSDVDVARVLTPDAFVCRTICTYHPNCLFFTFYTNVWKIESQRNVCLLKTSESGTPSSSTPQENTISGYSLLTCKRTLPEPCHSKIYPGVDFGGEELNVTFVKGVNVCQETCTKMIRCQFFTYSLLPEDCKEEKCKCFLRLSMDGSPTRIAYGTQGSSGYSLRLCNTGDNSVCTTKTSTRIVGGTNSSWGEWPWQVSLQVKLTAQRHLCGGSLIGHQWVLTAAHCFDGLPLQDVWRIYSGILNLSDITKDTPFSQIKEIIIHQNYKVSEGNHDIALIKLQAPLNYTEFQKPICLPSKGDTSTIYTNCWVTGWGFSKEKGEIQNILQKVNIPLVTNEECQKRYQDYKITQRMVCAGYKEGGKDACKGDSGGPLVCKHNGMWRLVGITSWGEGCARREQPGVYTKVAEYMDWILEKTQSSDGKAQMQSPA
Assay: Kallikrein inhibition assay (thioester substrate)
Type: biochemical
Conditions: kallikrein 0.02 units/mL; read-out: Kallikrein (Serine Protease Inhibitory Data, IC50)
// return numeric value only (unit: nM, not printed)

## Task # get_value(readout= IC50, system= kallikrein (Homo sapiens, UniProt P03952)) for N=C(N)c1ccc2cc(OC(=O)c3ccc(N=C(N)N)cc3)ccc2c1 [nafamostat, reference compound]
## Result 12

## Task And for N=C(N)C1COc2cc(OC(=O)c3ccco3)ccc2C1 (centres unmarked) [Example 19] ?
## Result 661

## Task And for CC/C=C/C(=O)Oc1ccc2cc(C(=N)N)sc2c1 [Example 20] ?
## Result 12

## Task And for N=C(N)c1cc2ccc(OC(=O)c3ccco3)cc2s1 [Example 8] ?
## Result 1.4

## Task And for N=C(N)c1nc2ccc(OC(=O)c3ccccc3)cc2s1 [Example 12] ?
## Result 3.8

## Task And for N=C(N)c1nc2ccc(OC(=O)c3cccs3)cc2s1 [Example 14] ?
## Result 2

## Task And for N=C(N)c1nc2ccc(OC(=O)c3ccsc3)cc2s1 [Example 16] ?
## Result 2.6

## Task And for N=C(N)c1nc2ccc(OC(=O)c3ccoc3)cc2s1 [Example 15] ?
## Result 5

## Task And for N=C(N)C1=Cc2ccc(OC(=O)c3ccco3)cc2OC1 [Example 18] ?
## Result 3.6

## Task And for N=C(N)c1cc2ccc(OC(=O)c3ccco3)cc2o1 [Example 1] ?
## Result 5.4

## Task And for N=C(N)c1cc2ccc(OC(=O)c3ccccc3)cc2s1 [Example 7] ?
## Result 1.3

---

Target or system Thrombin (Homo sapiens, UniProt P00734): recorded IC50 listed per item.
// return numeric value only (unit: nM, not printed)

Molecule	IC50, nM
N=C(N)c1nc2ccc(OC(=O)c3ccsc3)cc2s1	42
N=C(N)c1cc2ccc(OC(=O)c3cccs3)cc2o1	520
N=C(N)c1ccc2cc(OC(=O)c3ccc(N=C(N)N)cc3)ccc2c1 [nafamostat, reference compound]	678
N=C(N)c1cc2ccc(OC(=O)c3cccs3)cc2s1	42
N=C(N)c1cc2cc(OC(=O)c3ccco3)ccc2o1	65

## Task Which measured IC50 value corresponds to N=C(N)c1cc2ccc(OC(=O)c3ccoc3)cc2s1 ?
## Result 47

## Task And for N=C(N)c1nc2ccc(OC(=O)c3ccoc3)cc2s1 ?
## Result 15

## Task And for N=C(N)c1nc2ccc(OC(=O)c3ccc(Cl)s3)cc2s1 ?
## Result 48

## Task And for N=C(N)C1=Cc2ccc(OC(=O)c3ccco3)cc2OC1 ?
## Result 51

## Task And for N=C(N)c1cc2cc(OC(=O)c3ccoc3)ccc2o1 ?
## Result 104

Each recorded value in this set is attributed to patent US6653340B1.
